Attribute: fold change of affinity
Molecular target: T1, Human CD137 ECD (human)
T1 construct: also called 4-1BB
T1 sequence (chain, as listed by the source limits assumed): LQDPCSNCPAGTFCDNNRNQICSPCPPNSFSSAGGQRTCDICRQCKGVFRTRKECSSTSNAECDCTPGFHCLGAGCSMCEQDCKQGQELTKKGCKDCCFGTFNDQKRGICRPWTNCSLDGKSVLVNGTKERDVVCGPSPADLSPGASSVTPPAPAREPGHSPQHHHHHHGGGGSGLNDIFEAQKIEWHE
Test: single mutant vs template dBBDu183H
// units = fold; emit number, no label

For orientation, consider the following solved cases.
| BINDER | OUTPUT_UNIT | fold change of affinity |
| --- | --- | --- |
| H183/L072 VH Y55E (antibody, name in Kabat numbering, V domains shown) VH: QVQLVESGGGLVQPGRSLRLSCAASGFTFSNAWMHWVRQAPGKGLEWVAQIKDKGNAEAAYYAPSVKGRFTISRDDSKNSIYLQMNSLKTEDTAVYYCHYVHYASASTVLPAFGVDAWGQGTTVTVSS VL: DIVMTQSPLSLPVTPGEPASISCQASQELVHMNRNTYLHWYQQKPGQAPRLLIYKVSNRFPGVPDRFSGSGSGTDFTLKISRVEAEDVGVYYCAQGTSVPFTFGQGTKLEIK | fold | 0.4 |
| H183/L072 VH G52cT (antibody, name in Kabat numbering, V domains shown) VH: QVQLVESGGGLVQPGRSLRLSCAASGFTFSNAWMHWVRQAPGKGLEWVAQIKDKTNAYAAYYAPSVKGRFTISRDDSKNSIYLQMNSLKTEDTAVYYCHYVHYASASTVLPAFGVDAWGQGTTVTVSS VL: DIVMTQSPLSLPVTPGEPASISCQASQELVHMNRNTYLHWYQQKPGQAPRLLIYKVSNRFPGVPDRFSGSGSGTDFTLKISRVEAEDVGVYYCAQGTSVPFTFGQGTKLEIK | fold | 1 |
| H183/L072 VH K52bW (antibody, name in Kabat numbering, V domains shown) VH: QVQLVESGGGLVQPGRSLRLSCAASGFTFSNAWMHWVRQAPGKGLEWVAQIKDWGNAYAAYYAPSVKGRFTISRDDSKNSIYLQMNSLKTEDTAVYYCHYVHYASASTVLPAFGVDAWGQGTTVTVSS VL: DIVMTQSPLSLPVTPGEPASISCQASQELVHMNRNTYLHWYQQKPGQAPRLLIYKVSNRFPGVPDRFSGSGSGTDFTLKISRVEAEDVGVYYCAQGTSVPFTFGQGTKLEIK | fold | 0.9 |

For the next question, use this binder.
input: Given the binder H183/L072 VH F27K (antibody, name in Kabat numbering, V domains shown) VH: QVQLVESGGGLVQPGRSLRLSCAASGKTFSNAWMHWVRQAPGKGLEWVAQIKDKGNAYAAYYAPSVKGRFTISRDDSKNSIYLQMNSLKTEDTAVYYCHYVHYASASTVLPAFGVDAWGQGTTVTVSS VL: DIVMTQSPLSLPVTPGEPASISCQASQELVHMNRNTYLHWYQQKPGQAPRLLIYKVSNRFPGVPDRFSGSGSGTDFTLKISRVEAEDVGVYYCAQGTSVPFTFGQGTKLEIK , what is its reported fold change of affinity?
output: 0.2
